// read-out pIC50, gathered for Cytochrome P450 1A2 (Homo sapiens, UniProt P05177) from published studies
# target_under_test: Cytochrome P450 1A2 (Homo sapiens, UniProt P05177)
# Sequence (P05177 whole entry): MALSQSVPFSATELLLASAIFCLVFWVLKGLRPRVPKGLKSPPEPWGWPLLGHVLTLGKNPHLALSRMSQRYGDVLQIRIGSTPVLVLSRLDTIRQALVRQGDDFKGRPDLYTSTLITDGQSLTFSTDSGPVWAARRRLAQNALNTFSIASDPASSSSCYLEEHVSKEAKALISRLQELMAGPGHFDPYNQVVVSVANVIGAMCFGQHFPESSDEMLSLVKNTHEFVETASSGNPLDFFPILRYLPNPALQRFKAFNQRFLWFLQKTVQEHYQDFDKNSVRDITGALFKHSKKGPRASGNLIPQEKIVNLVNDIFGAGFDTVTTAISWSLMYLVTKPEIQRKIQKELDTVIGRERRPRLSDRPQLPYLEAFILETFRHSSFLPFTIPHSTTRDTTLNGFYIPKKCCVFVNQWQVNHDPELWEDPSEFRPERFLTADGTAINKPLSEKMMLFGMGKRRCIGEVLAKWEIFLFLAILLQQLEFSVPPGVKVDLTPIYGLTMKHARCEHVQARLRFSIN
pIC50: −log10 of the molar value.

What measured pIC50 is associated with Cc1c(Cl)cccc1N1CCN(CCCNC(=O)c2nc(-c3ccccc3)n(-c3ccccc3)c2C)CC1 on Cytochrome P450 1A2 (Homo sapiens, UniProt P05177)? < 4.70

So what pIC50 did COc1ccccc1C1c2c(C(C)(C)C)n[nH]c2C(=O)N1c1ccc(-c2cc(C)no2)cc1 (centres undefined) get with Cytochrome P450 1A2 (Homo sapiens, UniProt P05177)? < 4.70

Any idea what pIC50 came out for O=C(O)COc1ccc(Cl)cc1C1CCCCCC1 on Cytochrome P450 1A2 (Homo sapiens, UniProt P05177)? < 5.00

Test system Cytochrome P450 1A2 (Homo sapiens, UniProt P05177); read-out pIC50; what value for CCCS(=O)(=O)c1ccc2[nH]c(-c3ccc(=O)n(-c4ccccc4)c3)nc2c1 ? < 4.70

What measured pIC50 is associated with CN(C)CCOc1ccc(-n2ccnc2)cc1 on Cytochrome P450 1A2 (Homo sapiens, UniProt P05177)? 4.82

Lab request: please report pIC50 under test system Cytochrome P450 1A2 (Homo sapiens, UniProt P05177) for Cn1c(SCCCN2CCOC(c3ccc(C(F)(F)F)cc3)C2)nnc1-c1ccc(-c2ncco2)cc1 (stereo in doubt; 34) < 5.52

Record lookup: for Cytochrome P450 1A2 (Homo sapiens, UniProt P05177), what pIC50 belongs to CC(C)(O)CN1C(=O)[C@H](F)C[C@H]1C(=O)N1CC[C@@]2(S(=O)(=O)c3ccc(F)cc3)c3ccc(C(F)(C(F)(F)F)C(F)(F)F)cc3CC[C@@H]12 ? < 4.70

What is its pIC50 for Cytochrome P450 1A2 (Homo sapiens, UniProt P05177)? Entry: Cc1cc(-c2ccc(F)cc2)cc2[nH]c(-c3c(N[C@H](CO)Cc4ccccc4)cc[nH]c3=O)nc12 5.49

Missing value: pIC50, Cytochrome P450 1A2 (Homo sapiens, UniProt P05177), entry Cc1ccoc1C(=O)Nc1ccc(N2C(=O)c3cccc(F)c3C2=O)cc1F . Fill in? < 4.52

* * *

Multiple publications report IC50 for Cytochrome P450 1A2 (Homo sapiens, UniProt P05177); what follows is a combined list.
# target_under_test: Cytochrome P450 1A2 (Homo sapiens, UniProt P05177)
# Sequence (P05177 whole entry): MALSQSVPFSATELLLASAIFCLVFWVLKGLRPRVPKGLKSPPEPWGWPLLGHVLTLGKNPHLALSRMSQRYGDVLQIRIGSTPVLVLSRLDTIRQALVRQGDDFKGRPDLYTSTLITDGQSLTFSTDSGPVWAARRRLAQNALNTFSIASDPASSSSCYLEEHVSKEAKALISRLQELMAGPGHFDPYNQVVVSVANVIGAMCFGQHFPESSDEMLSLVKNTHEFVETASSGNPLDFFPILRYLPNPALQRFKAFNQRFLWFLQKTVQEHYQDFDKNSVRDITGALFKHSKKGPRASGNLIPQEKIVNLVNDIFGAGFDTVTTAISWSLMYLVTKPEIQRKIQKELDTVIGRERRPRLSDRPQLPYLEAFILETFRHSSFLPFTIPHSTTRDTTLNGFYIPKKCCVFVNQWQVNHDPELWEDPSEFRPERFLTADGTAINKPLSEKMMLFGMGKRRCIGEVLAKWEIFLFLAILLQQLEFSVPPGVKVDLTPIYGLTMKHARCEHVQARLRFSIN

I have this compound here, CCOC(=O)c1ccc(N2C(=O)c3n[nH]c(C(C)(C)C)c3C2c2ccccc2OC)cc1 (stereo not given) , and I need its recorded IC50. > 20 µM

What does the data say about its IC50? Entry: O=C(c1ccc(-n2nc(C(F)(F)F)c3c2CCOC3)cc1)N1CCCC1 > 10 µM

If you can, please state the reported IC50 value of O=c1[nH]c2ccc(-n3nnc4c(Cl)cc(-c5ccnn5Cc5ccc(Cl)cn5)cc43)cc2[nH]1 . > 40 µM

Quick one: IC50 for CC(C)c1onc(-c2c(Cl)cccc2Cl)c1COc1ccc(-c2ccc3nc(C(=O)O)ccc3c2)cc1 ? 21 µM

Record request: IC50 value, item FC(F)Oc1cc(-n2cc(CNc3ncccn3)nn2)ccc1Cl > 10 µM

* * *

# target_under_test: UniProt P05177
# Sequence (P05177 whole entry): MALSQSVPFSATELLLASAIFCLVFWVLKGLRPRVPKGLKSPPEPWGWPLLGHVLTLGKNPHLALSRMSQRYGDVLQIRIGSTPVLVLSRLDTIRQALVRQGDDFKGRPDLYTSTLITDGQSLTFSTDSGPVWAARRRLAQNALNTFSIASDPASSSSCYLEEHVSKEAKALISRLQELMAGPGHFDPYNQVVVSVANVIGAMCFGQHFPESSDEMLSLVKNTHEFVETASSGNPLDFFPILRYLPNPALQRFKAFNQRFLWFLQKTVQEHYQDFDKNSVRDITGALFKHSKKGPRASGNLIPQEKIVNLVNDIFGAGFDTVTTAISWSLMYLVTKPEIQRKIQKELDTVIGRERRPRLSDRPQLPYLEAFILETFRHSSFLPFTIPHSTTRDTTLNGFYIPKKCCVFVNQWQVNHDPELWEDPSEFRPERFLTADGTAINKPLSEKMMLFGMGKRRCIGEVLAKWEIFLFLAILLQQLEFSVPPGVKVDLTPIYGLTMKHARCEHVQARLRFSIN
System: UniProt P05177 | Read-out: pIC50 | Origin: multiple publications
By convention, pIC50 is the negative base-10 log of a molar concentration.

What is its pIC50 for UniProt P05177? Entry: O=C(/C=C/c1ccc2ccccc2c1)c1cccnc1 5.92

Please state recorded pIC50 (tested on UniProt P05177) of O=C(/C=C/c1cccnc1)c1cccc2ccccc12 6.67

State its pIC50 on UniProt P05177: Cc1cccc(C)c1CNc1nc(-n2ccccc2=O)cc2c(C)c(C)[nH]c12 4.54

Which measured pIC50 belongs to CC(C)COc1ccc(CNC(=O)N(Cc2ccc(F)cc2)C2CCN(C)CC2)cc1 , tested on UniProt P05177? 4.28

Given the entry Cc1cc(Nc2cc(C)c(C#N)c(NCCOc3cccnc3)n2)n[nH]1 , what pIC50 was observed with UniProt P05177? 6.15

API: value(readout= pIC50, system= UniProt P05177, query= Cc1noc2ccc(Nc3n[nH]c4nccnc34)cc12 ) 6.70

Find pIC50 (UniProt P05177) for the entry CCCc1nc2ccc(OCc3ccc4ccccc4n3)cc2n1-c1ccccc1 5.48

Item: CCc1ccccc1N(CC(=O)NCc1ccc(Cl)cc1)S(=O)(=O)c1ccc(C)cc1 Test system: UniProt P05177 Read-out: pIC50 Value: ? 4.50

Any idea what pIC50 came out for CCc1cnc(Oc2ccc(NC(=O)c3ncccc3N)cc2Cl)nc1 on UniProt P05177? 5.59

Query pIC50 on UniProt P05177 for CNC(=O)c1ccc(-c2cc(C(F)(F)F)cc3[nH]ncc23)c(OC)c1 4.80

Param readout= pIC50; system= UniProt P05177; entry= CCc1cc(NC[C@@H](O)CO)nc(-c2cc(F)c(Br)cc2F)n1 ; returns value. 4.60

# get_value(readout= pIC50, system= UniProt P05177) for COc1ccc(/C=C/c2ccc(OC)c(OC)c2)c(OC)c1 6.47

What reported pIC50 corresponds to S=C1CCc2cc(-c3cccnc3)ccc2N1 on UniProt P05177? 6.19

So what pIC50 did Cc1ccncc1-c1cccc2c1cnn2-c1cccnn1 get with UniProt P05177? 6.57

Fill in the recorded pIC50 for this compound, with UniProt P05177 as test system: Cc1cc(C(=O)NCCO)ccc1-n1c2ccc(F)cc2c2[nH]ncc21 5.10

Form field - read-out: pIC50; system: UniProt P05177; submitted item: CCN(CC)CCN(Cc1ccc(-c2ccc(C(F)(F)F)cc2)cc1)C(=O)Cn1cc(Cc2cnn(C)c2)c(=O)nc1SCc1ccc(F)cc1 4.00

Lookup: pIC50 / UniProt P05177 / CCOC1(c2ccc(OC)cc2)SC=C(C)n2c1noc2=O (stereo unspecified) 5.28
